# Inverse agonist efficacy, % (α1) values compiled below
target_entity: Human recombinant GABAA receptor containing α1 subunit (Homo sapiens, UniProt P14867+P18507)
Construct: expressed in transfected cells; host or cells: 293 cell line
method_description: Electrophysiological inverse agonist efficacy on GABA-induced current
Type: cell-based
applied_conditions: change of GABA-induced current; negative = inhibition
Respond with the bare value in %.

// below: answered compounds
compound="Cc1cc(-c2nncc3c(C(C)(C)CO)c(OCc4ncnn4C)nn23)no1 [MRK016-M2]" endpoint_unit=% reported_measurement=−41
compound="Cn1ncnc1COc1nn2c(-c3cc(CO)on3)nncc2c1C(C)(C)C [MRK016-M3]" endpoint_unit=% reported_measurement=−11
compound="Cc1cc(-c2nncc3c(C(C)(C)C)c(OCc4ncnn4C)nn23)no1 [MRK016]" endpoint_unit=% reported_measurement=−16

Switching to the query record.
Enquiry: For Cc1cc(-c2nnc3c4ccccc4c(OCC4=CC(C)C=N4)nn23)no1 (stereo not drawn) [α5IA] , what is its reported Inverse agonist efficacy, % (α1)?
Return: −4

###

target_entity: Human recombinant α5-GABAA receptor (Homo sapiens, UniProt P18507+P31644)
Construct: expressed in transfected cells; host or cells: 293 cell line
method_description: Electrophysiological inverse agonist efficacy on GABA-induced current
Format: cell-based
applied_conditions: change of GABA-induced current; negative = inhibition
# Inverse agonist efficacy, % (α5) values compiled below
Respond with the bare value in %.

// below: answered compounds
compound="Cc1cc(-c2nnc3c4ccccc4c(OCC4=CC(C)C=N4)nn23)no1 (stereo not shown)" measurement_label="Inverse agonist efficacy, % (α5)" endpoint_unit=% reported_measurement=−29
compound=Cc1cc(-c2nncc3c(C(C)(C)CO)c(OCc4ncnn4C)nn23)no1 measurement_label="Inverse agonist efficacy, % (α5)" endpoint_unit=% reported_measurement=−40
compound=Cc1cc(-c2nncc3c(C(C)(C)C)c(OCc4ncnn4C)nn23)no1 measurement_label="Inverse agonist efficacy, % (α5)" endpoint_unit=% reported_measurement=−55

Switching to the query record.
Enquiry: Any idea what Inverse agonist efficacy, % (α5) came out for Cn1ncnc1COc1nn2c(-c3cc(CO)on3)nncc2c1C(C)(C)C on Human recombinant α5-GABAA receptor (Homo sapiens, UniProt P18507+P31644)?
Return: −52

###

# Ki values compiled below
target_entity: Human recombinant GABAA receptor containing α3 subunit (α3, β3, γ2) (Homo sapiens, UniProt P18507+P34903)
Construct: expressed in transfected cells; host or cells: 293 cell line
method_description: Competitive radioligand binding ([3H]Ro-0151788) on membranes of 293 cells, Ki
applied_conditions: human recombinant GABAA subtype containing α3; read-out: Affinity, nM (α3)
Value and unit, in that order.

compound="Cc1cc(-c2nncc3c(C(C)(C)C)c(OCc4ncnn4C)nn23)no1 [MRK016]" reported_measurement="0.77 nM"

Enquiry: For Cc1cc(-c2nncc3c(C(C)(C)CO)c(OCc4ncnn4C)nn23)no1 [MRK016-M2] , what is its reported Ki?
Return: 9.8 nM

Enquiry: For Cn1ncnc1COc1nn2c(-c3cc(CO)on3)nncc2c1C(C)(C)C [MRK016-M3] , what is its reported Ki?
Return: 0.69 nM

Enquiry: For Cc1cc(-c2nnc3c4ccccc4c(OCC4=CC(C)C=N4)nn23)no1 (stereo not drawn) [α5IA] , what is its reported Ki?
Return: 0.61 nM

Origin of the recorded values: patent US20150374705A1
